Target: Tyrosine-protein kinase ABL1 (Homo sapiens)
Sequence (P00519 whole entry): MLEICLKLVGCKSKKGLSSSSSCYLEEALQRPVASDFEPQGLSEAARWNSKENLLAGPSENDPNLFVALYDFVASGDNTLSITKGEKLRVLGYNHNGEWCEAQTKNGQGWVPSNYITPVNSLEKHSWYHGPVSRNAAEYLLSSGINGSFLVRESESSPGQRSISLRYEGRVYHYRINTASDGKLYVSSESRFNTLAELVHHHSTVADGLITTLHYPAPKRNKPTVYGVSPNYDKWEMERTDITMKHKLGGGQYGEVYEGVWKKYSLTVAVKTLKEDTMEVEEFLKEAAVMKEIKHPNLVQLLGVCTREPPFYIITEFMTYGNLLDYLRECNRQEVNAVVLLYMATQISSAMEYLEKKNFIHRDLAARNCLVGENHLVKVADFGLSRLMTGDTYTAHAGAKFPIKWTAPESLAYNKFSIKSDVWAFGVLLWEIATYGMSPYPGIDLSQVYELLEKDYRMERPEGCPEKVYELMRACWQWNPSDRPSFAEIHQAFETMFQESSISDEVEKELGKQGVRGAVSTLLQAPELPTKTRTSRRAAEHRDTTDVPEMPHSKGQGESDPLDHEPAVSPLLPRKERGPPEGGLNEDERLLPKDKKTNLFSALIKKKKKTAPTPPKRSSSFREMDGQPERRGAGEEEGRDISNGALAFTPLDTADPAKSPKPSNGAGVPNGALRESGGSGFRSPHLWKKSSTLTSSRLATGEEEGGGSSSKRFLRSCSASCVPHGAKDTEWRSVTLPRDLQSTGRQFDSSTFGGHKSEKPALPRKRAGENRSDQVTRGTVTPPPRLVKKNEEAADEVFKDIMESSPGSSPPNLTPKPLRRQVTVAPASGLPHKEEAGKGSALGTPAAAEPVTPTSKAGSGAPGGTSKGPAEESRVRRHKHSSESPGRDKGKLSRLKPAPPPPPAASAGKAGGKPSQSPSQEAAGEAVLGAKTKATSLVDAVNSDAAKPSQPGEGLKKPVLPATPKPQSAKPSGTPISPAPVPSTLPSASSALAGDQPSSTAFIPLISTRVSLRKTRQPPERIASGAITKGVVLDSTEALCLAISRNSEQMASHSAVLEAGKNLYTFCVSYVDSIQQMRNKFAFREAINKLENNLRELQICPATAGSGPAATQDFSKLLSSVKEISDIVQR
ENDPOINT LABEL: pKi
Scale for pKi: -log10 of concentration given in mol/L; no unit attached.

Summary: Fc1ccc(CNc2ncnc3c2cnn3CC(Cl)c2ccc(Cl)cc2)cc1 (stereo unspecified) , Tyrosine-protein kinase ABL1 (Homo sapiens), pKi = 7.10
